# tgt: human complement protein C3 (human, UniProt P01024 23-1663)
# Sequence (P01024 23-1663 limits assumed): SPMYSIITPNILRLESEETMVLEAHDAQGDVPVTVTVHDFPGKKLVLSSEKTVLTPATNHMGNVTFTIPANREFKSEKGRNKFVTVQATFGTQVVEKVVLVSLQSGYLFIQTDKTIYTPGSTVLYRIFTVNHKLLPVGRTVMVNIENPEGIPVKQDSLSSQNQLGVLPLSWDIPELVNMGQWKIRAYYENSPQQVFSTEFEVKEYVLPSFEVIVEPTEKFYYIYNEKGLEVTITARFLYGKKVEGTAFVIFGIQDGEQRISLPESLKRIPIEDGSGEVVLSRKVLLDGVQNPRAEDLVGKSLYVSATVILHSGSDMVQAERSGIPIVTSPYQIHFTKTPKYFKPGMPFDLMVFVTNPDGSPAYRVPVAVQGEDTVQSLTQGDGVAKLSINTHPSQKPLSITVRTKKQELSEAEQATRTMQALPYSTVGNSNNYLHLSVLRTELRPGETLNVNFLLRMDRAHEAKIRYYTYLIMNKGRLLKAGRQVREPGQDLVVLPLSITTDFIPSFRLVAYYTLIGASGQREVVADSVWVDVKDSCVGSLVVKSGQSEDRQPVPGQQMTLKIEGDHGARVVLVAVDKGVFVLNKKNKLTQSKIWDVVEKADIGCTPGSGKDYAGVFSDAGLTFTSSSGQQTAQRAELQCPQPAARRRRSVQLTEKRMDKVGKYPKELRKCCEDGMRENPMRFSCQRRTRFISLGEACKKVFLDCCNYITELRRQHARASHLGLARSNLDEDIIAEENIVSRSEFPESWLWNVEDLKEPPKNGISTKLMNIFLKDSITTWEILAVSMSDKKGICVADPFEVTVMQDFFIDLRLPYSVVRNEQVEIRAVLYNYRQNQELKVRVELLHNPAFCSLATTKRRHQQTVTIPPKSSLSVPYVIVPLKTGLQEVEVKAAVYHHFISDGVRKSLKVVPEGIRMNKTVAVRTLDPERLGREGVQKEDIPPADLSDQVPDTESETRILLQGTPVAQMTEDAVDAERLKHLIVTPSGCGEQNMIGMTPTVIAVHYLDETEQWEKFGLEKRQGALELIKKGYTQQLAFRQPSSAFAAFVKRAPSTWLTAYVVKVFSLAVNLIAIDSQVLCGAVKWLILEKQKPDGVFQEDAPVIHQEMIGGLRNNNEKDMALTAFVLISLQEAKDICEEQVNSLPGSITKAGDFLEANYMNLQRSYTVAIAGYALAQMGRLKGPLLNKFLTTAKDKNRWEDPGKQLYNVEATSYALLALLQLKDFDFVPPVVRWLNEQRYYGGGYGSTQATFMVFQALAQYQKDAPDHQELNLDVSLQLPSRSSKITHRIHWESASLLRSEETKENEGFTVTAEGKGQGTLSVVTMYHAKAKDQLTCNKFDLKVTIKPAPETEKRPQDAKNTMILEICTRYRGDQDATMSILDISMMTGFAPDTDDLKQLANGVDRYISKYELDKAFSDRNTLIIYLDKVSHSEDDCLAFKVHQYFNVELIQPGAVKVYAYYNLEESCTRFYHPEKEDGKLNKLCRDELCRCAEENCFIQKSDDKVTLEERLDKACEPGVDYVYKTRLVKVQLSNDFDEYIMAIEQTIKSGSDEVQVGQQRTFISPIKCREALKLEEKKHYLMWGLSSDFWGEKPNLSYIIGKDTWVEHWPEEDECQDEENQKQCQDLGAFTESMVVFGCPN
# method-description: cell-based or functional assay
Bridge positions count the residues as written; N and C are the ends. Square brackets hold non-standard residues; d marks the D form. Nal = 1-naphthylalanine or 2-naphthylalanine
measurement-name: Lysis IC50 (nM)
Express the result in nM but write the number alone.

binder | Lysis IC50 / nM
Ac-ERICVWQDWGAHRCT-NH2 (disulfide 4-14; SMILES CC[C@H](C)[C@H](NC(=O)[C@H](CCCNC(=N)N)NC(=O)[C@H](CCC(=O)O)NC(C)=O)C(=O)N[C@H]1CSSC[C@@H](C(=O)N[C@H](C(N)=O)[C@@H](C)O)NC(=O)[C@H](CCCNC(=N)N)NC(=O)[C@H](Cc2c[nH]cn2)NC(=O)[C@H](C)NC(=O)CNC(=O)[C@H](Cc2c[nH]c3ccccc23)NC(=O)[C@H](CC(=O)O)NC(=O)[C@H](CCC(N)=O)NC(=O)[C@H](Cc2c[nH]c3ccccc23)NC(=O)[C@H](C(C)C)NC1=O) [Peptide 3.1, Ac-ER-ICVWQDWGAHRCT-NH2] | 900

As a next step, examine the binder that follows.
For the binder Ac-NRLCV[Nal]QDWG[Nal]HRCT-NH2 (disulfide 4-14; not fully specified; printed as Ac-NRLCV{Nal}QDWG{Nal}HRCT-NH2) [Peptide 4.7, Ac-NR-LCV{Nal}QDWG{Nal}HRCT-NH2] , give its reported Lysis IC50.
1300
